# Target: Heat shock protein HSP 90-alpha (Homo sapiens)
# Format: functional, organism-based
Active and inactive are the calls of the source.
AC50 by entry:

{"Compound": "O=C1C=CC(=Nc2ccc(F)cc2)O1", "AC50": "2.25 µM (active)"}
{"Compound": "CCC(=O)OC1(C)C(=O)C2=COC(c3ccc(OC)cc3)=CC2=C(Br)C1=O (stereo unspecified)", "AC50": "1.51 µM (active)"}
{"Compound": "COc1ccc2c(c1)[C@H]1[C@H](CO2)[C@H](c2ccccc2)[C@]2(C)C(=O)Nc3ccc(Br)cc3C(=O)N12", "AC50": "1.59 µM (active)"}
{"Compound": "Cc1cccc(N=C2c3cc([N+](=O)[O-])ccc3-c3c2cc([N+](=O)[O-])cc3[N+](=O)[O-])c1", "AC50": "16.6 µM (active)"}
{"Compound": "COc1ccc(-c2nc(-c3ccccn3)no2)cc1", "AC50": "20.4 µM (active)"}
{"Compound": "CCn1c(CNc2ccc(Cl)cc2)nnc1SCc1ccc(Cl)cc1", "AC50": "5.01 µM (active)"}

---

# Target: Fatty acid synthase (Homo sapiens)
# Sequence (P49327 whole entry, the tested form may be a part): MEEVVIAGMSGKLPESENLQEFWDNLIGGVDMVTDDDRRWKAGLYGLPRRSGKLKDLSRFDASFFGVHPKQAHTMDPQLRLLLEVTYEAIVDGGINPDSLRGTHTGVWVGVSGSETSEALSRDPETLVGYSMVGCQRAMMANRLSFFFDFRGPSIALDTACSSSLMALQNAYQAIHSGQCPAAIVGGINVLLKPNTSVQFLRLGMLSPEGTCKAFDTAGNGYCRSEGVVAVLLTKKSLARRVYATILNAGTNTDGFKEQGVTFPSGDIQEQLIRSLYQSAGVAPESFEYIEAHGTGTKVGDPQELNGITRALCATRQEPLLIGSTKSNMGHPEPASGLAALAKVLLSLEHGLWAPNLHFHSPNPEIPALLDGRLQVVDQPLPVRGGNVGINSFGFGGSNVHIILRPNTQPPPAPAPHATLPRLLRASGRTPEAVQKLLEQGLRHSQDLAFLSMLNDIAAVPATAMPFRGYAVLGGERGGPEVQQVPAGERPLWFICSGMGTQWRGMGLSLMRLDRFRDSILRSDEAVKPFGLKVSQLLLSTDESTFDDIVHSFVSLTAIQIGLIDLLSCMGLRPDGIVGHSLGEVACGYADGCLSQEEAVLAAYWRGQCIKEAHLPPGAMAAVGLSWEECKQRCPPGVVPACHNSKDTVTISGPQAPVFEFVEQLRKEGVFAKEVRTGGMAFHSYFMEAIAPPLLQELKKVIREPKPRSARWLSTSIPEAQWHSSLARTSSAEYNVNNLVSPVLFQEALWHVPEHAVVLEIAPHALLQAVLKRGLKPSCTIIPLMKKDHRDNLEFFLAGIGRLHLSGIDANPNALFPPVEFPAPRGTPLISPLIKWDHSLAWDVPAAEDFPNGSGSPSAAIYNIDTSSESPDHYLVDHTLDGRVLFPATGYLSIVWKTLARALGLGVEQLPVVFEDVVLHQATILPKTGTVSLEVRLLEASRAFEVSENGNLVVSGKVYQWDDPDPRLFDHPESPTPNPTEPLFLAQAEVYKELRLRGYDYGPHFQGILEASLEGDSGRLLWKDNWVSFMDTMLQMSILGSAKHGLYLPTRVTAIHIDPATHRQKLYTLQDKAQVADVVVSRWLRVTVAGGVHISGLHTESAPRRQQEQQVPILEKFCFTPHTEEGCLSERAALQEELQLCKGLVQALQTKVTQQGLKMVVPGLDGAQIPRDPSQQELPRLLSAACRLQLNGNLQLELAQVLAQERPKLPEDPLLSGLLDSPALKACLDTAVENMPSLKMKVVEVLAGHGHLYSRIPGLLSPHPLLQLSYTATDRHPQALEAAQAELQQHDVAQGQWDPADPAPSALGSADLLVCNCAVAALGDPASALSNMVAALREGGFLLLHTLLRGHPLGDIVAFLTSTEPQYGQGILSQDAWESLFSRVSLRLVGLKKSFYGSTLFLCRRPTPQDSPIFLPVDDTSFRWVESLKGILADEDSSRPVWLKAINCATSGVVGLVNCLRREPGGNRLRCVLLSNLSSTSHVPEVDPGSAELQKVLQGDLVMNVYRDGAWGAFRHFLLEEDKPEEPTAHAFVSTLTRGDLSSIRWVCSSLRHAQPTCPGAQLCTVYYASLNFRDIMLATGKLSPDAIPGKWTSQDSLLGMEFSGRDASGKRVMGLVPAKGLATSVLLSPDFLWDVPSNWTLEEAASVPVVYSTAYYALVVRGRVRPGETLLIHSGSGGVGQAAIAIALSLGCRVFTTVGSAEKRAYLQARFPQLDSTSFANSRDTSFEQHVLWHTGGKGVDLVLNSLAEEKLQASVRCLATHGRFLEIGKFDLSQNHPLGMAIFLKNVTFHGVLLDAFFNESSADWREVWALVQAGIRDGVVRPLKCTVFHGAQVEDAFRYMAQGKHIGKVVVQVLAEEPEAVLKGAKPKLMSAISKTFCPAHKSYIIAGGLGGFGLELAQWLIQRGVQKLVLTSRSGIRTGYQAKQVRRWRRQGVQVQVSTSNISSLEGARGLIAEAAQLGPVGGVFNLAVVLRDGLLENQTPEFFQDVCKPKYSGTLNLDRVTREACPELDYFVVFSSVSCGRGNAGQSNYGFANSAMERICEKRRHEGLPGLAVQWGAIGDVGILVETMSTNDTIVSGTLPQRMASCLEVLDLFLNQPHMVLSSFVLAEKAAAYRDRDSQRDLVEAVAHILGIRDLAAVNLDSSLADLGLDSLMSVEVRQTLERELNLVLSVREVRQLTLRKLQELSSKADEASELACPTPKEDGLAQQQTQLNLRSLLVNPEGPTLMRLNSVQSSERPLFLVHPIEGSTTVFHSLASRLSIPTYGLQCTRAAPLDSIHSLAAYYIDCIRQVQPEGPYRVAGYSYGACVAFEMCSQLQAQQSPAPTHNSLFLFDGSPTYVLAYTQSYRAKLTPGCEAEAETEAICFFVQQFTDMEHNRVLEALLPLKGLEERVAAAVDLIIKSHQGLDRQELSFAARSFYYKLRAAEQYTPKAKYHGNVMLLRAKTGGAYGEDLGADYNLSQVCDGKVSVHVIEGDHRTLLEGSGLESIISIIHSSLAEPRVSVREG
# Assay comment: FAS thioesterase domain inhibitors, dose response, biochemical, endpoint fluorescence intensity, uHTS hits (AID 624327);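 note: fluorescence from hydrolysis of an O-methyl fluorescein acyl ester substrate by the enzyme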
# Assay type: functional
Calls of active or inactive are those of the source.

{"Sample smiles": "O=[N+]([O-])c1c(Nc2ccccc2O)cc(Cl)c2nonc12", "IC50": "14.6 µM (active)"}
{"Sample smiles": "COc1ccc([N+](=O)[O-])cc1NC(=O)Nc1ccccc1", "IC50": "19.9 µM (active)"}
{"Sample smiles": "COc1ccccc1CNC(=O)COC(=O)c1cc([N+](=O)[O-])ccc1N1CCOCC1", "IC50": "1.31 µM (active)"}
{"Sample smiles": "CC(C)CSc1ncc(-c2cccc(C(F)(F)F)c2)cn1", "IC50": "15.5 µM (active)"}
{"Sample smiles": "N#Cc1ccc(Sc2nc3ccccc3[nH]2)cc1C#N", "IC50": "2.7 µM (active)"}

---

Quick reference for EC50 among some molecules
# Assay comment: cytotoxicity toward NIH3T3 fibroblasts, dose response, counter-screen, cell-based, ATP luminescence, mouse fibroblasts (AID 2010);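 note: cells exposed to compound for about 90 hours before reading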
# Type: functional
Activity calls are given as the source filed them.
Experimental readout: EC50

{"Molecule": "CCN1CCN(c2ccc(S(=O)(=O)N3CCOCC3)cc2NC(=O)CCOc2ccccc2)CC1", "Value": "> 60 µM (not active)"}
{"Molecule": "Cc1cccc2sc(N(CCN(C)C)C(=O)C3CCN(S(=O)(=O)c4cccs4)CC3)nc12", "Value": "> 60 µM (not active)"}
{"Molecule": "Cc1ccc(Nc2cc(C)nc(NCc3ccccc3)n2)cc1", "Value": "> 60 µM (inconclusive)"}
{"Molecule": "O=[N+]([O-])c1c(Nc2ccccc2O)cc(Cl)c2nonc12", "Value": "3.68 µM (active)"}
{"Molecule": "O=C(CNc1cccc([N+](=O)[O-])c1)N/N=C/c1ccc([N+](=O)[O-])o1", "Value": "> 60 µM (not active)"}
{"Molecule": "O=C(CSc1nnc(-c2ccc(F)cc2)c2ccccc12)Nc1cccc(Cl)c1", "Value": "> 30 µM (not active)"}
{"Molecule": "O=C(C[n+]1c2n(c3ccc(C(F)(F)F)cc31)CCCCC2)c1ccc2c(c1)OCCO2", "Value": "> 60 µM (not active)"}
{"Molecule": "CCn1cc(Cl)c(C(=O)N2N=C(c3ccc4ccccc4c3)CC2c2ccccc2O)n1 (stereo not drawn)", "Value": "> 60 µM (inconclusive)"}
{"Molecule": "COc1cc(C(=O)NCCC(C)C)ccc1OCc1ccc(Cl)cc1Cl", "Value": "> 30 µM (not active)"}
{"Molecule": "Cc1cc(C)c2c(N)c(C(=O)c3ccccc3Cl)sc2n1", "Value": "> 60 µM (not active)"}
{"Molecule": "CC(C)c1ccc2c(c1)C1(NN=C(c3ccccc3)S1)C(=O)N2 (stereo not drawn)", "Value": "6.8 µM (active)"}
{"Molecule": "Cc1cccc(CSc2nc3c(cc2C#N)CN(C)CC3)c1", "Value": "> 30 µM (not active)"}
{"Molecule": "Cc1ccc(S(=O)(=O)Nc2cccc(C(=O)NC3CCN(Cc4ccccc4)CC3)c2)cc1F", "Value": "> 60 µM (not active)"}
